Assay notes: human hepatoma cell viability loss – ATP luminescence, cytotoxicity control for P. falciparum antimalarial project, primary screen (AID 2303);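 also: 0% = DMSO wells and 100% = digitonin-killed cells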
Run conditions: HepG2 viability, 24-48 h, at 10 µM
The source made the active and inactive calls.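 The calls were made as follows: active = inhibition above 50%; inactive = the rest.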
Respond using exactly one of the listed classes: Y for active, N for inactive

Solved entries (count: 3):
- Molecule: "COc1cc(Nc2nc(N)n(C(=O)c3ccc4c(c3)OCO4)n2)cc(OC)c1OC"
  Class name: "Y"
- Molecule: "O=C(NC1CC1)c1ccc(N2CCOc3ccc(Cl)cc32)s1"
  Class name: "N"
- Molecule: "Oc1cc(Nc2ccnc3cc(I)ccc23)ccc1F"
  Class name: "N"

(Q) Entry COc1ccc2ncc(F)c(CCN3C[C@H](CNCc4cc(F)c5c(c4)NC(=O)CO5)[C@H](O)C3)c2n1 : call = ?
(A) N

(Q) Recorded call for CCOc1ccccc1CON1C(N)=NC(N)=NC1(C)C ?
(A) Y

(Q) Just curious, what result did CCCCCN=C(N)c1ccc(OCCCCCOc2ccc(C(N)=NCCCCC)cc2)cc1 get here?
(A) N

(Q) Which outcome was entered for the molecule CCOc1cc(C)ccc1N(C1CCN(CCCCNC(=O)c2ccc(-c3ccc(C(F)(F)F)cc3)cc2)CC1)S(=O)(=O)c1ccccc1 in this test?
(A) N

* * *

Assay notes: human hepatoma cell viability loss – ATP luminescence, cytotoxicity control for P. falciparum antimalarial project, primary screen (AID 2303);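 also: 0% = DMSO wells and 100% = digitonin-killed cells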
Run conditions: HepG2 viability, 24-48 h, at 10 µM, stronger effect = higher value
Decide using inhibition alone. Strictly below 10%: true (1). Equal to or above 10%: false (0).

Answered examples (5):
- Compound: "C[C@@H](C(=O)N1CCOCC1)N1CC[C@H](NS(=O)(=O)c2ccc3ccnc(N)c3c2)C1=O"
  Class name: "true (1)"
- Compound: "CS(=O)(=O)CCNCc1ccc(-c2ccc3c(Nc4ccc(Oc5ccccn5)cc4)ccnc3c2)o1"
  Class name: "true (1)"
- Compound: "CC(CCCCCC(=O)Nc1ccc(CC(C)NCCc2cccc(Cl)c2)cc1)NCCc1cccc(Cl)c1 (stereo not drawn)"
  Class name: "false (0)"
- Compound: "COc1ccc(-n2ccnc2SCC(=O)Nc2cc(Cl)ccc2OC)c(OC)c1"
  Class name: "true (1)"
- Compound: "O=C(/C=C/c1ccc(Cl)c(Cl)c1)NCCCCCN1CCC(CCNC(=O)/C=C/c2ccccc2F)CC1"
  Class name: "false (0)"

(Q) Dear colleague, could you confirm whether inhibition of CN(C)CCCOc1ccc(CN2CC[C@H](NC(=O)c3ccc(Cl)c(Cl)c3)C2)c2ccccc12 falls below 10%? Thanks.
(A) false (0)

(Q) A record lists CCc1ccc(NC(=O)c2cccc(CN3CCCN(Cc4ccc(OC)cc4)CC3)c2)cc1 . Is its inhibition below 10%?
(A) false (0)

(Q) Decide: inhibition of N#Cc1ccc(C=CC(=O)NC2CCC(CCN3CCc4ccc(-c5cnccn5)cc4CC3)CC2)cc1 (stereo not drawn) strictly below 10%?
(A) false (0)

(Q) Strictly below 10% in inhibition? CCN(CC)CCN(Cc1ccc(-c2ccc(C#N)cc2)cc1)C(=O)Cn1c(CCc2cccc(F)c2F)nc(=O)c2ccccc21
(A) false (0)

(Q) Please determine if COc1ccc(NC(=O)Nc2cc(C)nc3ccccc23)cc1Cl is below 10% in terms of inhibition.
(A) true (1)

(Q) Quick check: inhibition of Cc1c(Cl)ccc2c(C(=O)Nc3ccncc3)cc(-c3cccnc3)nc12 under 10%?
(A) false (0)

(Q) Item O=C(Nc1ccc(F)c(C(F)(F)F)c1)N[C@H]1CCN(CCCCCNC(=O)[C@@H]2C[C@H]2c2ccc(Cl)c(Cl)c2)C1 : inhibition beneath 10%, strictly?
(A) false (0)

(Q) Given CC(C)CCN1CCCN(Cc2cccc(NC(=O)c3ccc(-c4ccccc4)cc3)c2)CC1 , is recorded inhibition strictly lower than 10%?
(A) false (0)

(Q) Would you kindly verify if inhibition of CCOC(=O)NOC(C(=O)O)c1ccccc1 (stereo not drawn) is strictly less than 10%?
(A) true (1)

(Q) Given the entry CS(=O)(=O)Nc1ccc2[nH]cc(C3CCN(CCCCCNC(=O)/C=C/c4ccc(Cl)c(Cl)c4)CC3)c2c1 , would its reported inhibition be below 10%?
(A) true (1)

(Q) Determine whether this compound shows inhibition lower than 10% (ties excluded): COc1cc(Br)c(S(=O)(=O)n2cc(CN3CCC(N)CC3)c3cc(Cl)ccc32)cc1OC
(A) false (0)

* * *

Items are presented alongside their recorded growth inhibition.
Assay notes: antimalarial activity against Dd2 strain (AID 2302);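 also: 0% = DMSO untreated growth and 100% = chloroquine plus artemisinin killed control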
Run conditions: P. falciparum Dd2 in RBCs, LDH growth readout, 72 h; at 2 µM; stronger effect = higher value
I only need the number, in %, no unit after it.

A selection of reference data follows.
- Compound: "O=[N+]([O-])c1cc2c(cc1C=NNc1nc(Nc3ccccc3)nc(Nc3ccccc3)n1)OCO2"
  growth inhibition (%): 46
- Compound: "COc1cc(OC)cc(C(=O)N2CCOC(CCN3CCC(c4ccccc4)CC3)(c3ccc(Cl)c(Cl)c3)C2)c1 (centres undefined)"
  growth inhibition (%): 61
- Compound: "CCCCCCn1c(Sc2ccc(C#N)c([N+](=O)[O-])c2)nnc1-c1ccc(OC)cc1"
  growth inhibition (%): 51
- Compound: "COc1ccc(Nc2c3ccc(Cl)cc3nc3ccc(OC)cc23)cc1"
  growth inhibition (%): 99
- Compound: "O=C(Nc1ccc(F)cc1F)NC1CCN(c2ccnc3cc(Cl)ccc23)C1 (centres undefined)"
  growth inhibition (%): 82
- Compound: "Cc1cc(N2CCCC2)nc(Nc2ccc(NC(=O)CC(C)C)cc2)n1"
  growth inhibition (%): 53
- Compound: "CC1(C)N=C(N)N=C(N)N1OCCCNC(=O)c1ccc(C(=O)NCCCON2C(N)=NC(N)=NC2(C)C)cc1"
  growth inhibition (%): 96
- Compound: "O=C(Nc1cccc(-c2cccc(F)c2)c1)C1CCN(Cc2ccc(O)cc2)CC1"
  growth inhibition (%): 2
- Compound: "CC(C)CCNC(=O)[C@@H]1[C@H]2C(=O)N(C3CCCCC3)C(=O)[C@H]2[C@H]2C=C[C@@H]3C(c4ccc(C(C)(C)C)cc4)=NO[C@@H]3N21"
  growth inhibition (%): 48
- Compound: "CC1(C)CC(=O)c2c(O)cc(OCc3ccncc3)cc2O1"
  growth inhibition (%): 47

(Q) Report measured growth inhibition; entry is CNc1nc(NN=Cc2cc3c(cc2[N+](=O)[O-])OCO3)nc(Nc2cccc(C(F)(F)F)c2)n1
(A) 60

* * *

Assay notes: inhibition of 3D7 malaria parasite growth – strain 3D7 (AID 2306);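 also: 0% = DMSO wells and 100% = chloroquine plus artemisinin control wells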
Run conditions: P. falciparum 3D7 erythrocytic growth, LDH absorbance, 72 h; at 2 µM; stronger effect = higher value
// reported growth inhibition per item
# number only, unit % dropped from output

- Molecule: "CNCc1ccc(-c2ccc3ccnc(N)c3c2)cc1"
  Meas value: 94
- Molecule: "CC(C)c1ccc(CN2CCC(NC(=O)c3ccc(-c4cccc(Cl)c4)s3)CC2)cc1"
  Meas value: 82
- Molecule: "CCCN(Cc1nnc(-c2ccco2)o1)C(=O)C1CCCN(C(=O)c2ccc(Cl)cc2)C1 (stereo not given)"
  Meas value: 96
- Molecule: "N#CC(c1ccc(Cl)cc1)c1ccc2c(C(F)(F)F)cc(C(F)(F)F)nc2n1 (stereo not given)"
  Meas value: 97
- Molecule: "c1ccc(-n2cncn2)cc1"
  Meas value: 93
- Molecule: "COc1cccc(C2(c3cccc(OC)c3)N=C(N)N(CCCc3ccccc3)C2=O)c1"
  Meas value: 98
- Molecule: "CC(=NNC(=S)NC(C)(C)C)c1ccccn1"
  Meas value: 99
- Molecule: "O=C(Nc1cccc(-c2nn3ccccc3c2-c2ccnc(Nc3ccccc3)n2)c1)c1cc(F)ccc1F"
  Meas value: 98
- Molecule: "N#Cc1ccc(CN2CCC(Oc3ccc(NC(=O)c4cccs4)cc3Cl)CC2)cc1"
  Meas value: 95
- Molecule: "Cc1cc(N(C)CCCN(C)C)nc(Nc2ccc(Br)cc2)n1"
  Meas value: 100

(Q) Indicate its recorded growth inhibition; the molecule in question is COc1ccc(NCc2cccc(-c3cccc(CNCCc4ccccc4)c3)c2)cc1
(A) 96

(Q) Look up and report measured growth inhibition for this entry: CC(C)(C)C(=O)Nc1c(-c2cc(=O)oc3cc4c(cc23)CCC4)oc2ccccc12
(A) 101

(Q) State, in one line, measured growth inhibition of CNC(=O)c1cnc(Nc2ccc(OCC(O)CN(C)C)cc2)nc1Nc1cccc([N+](=O)[O-])c1 (stereo not given)
(A) 100

(Q) Give the measured growth inhibition for CCCCCCCOc1ccc(NC(=O)Nc2ccc(Cn3ncc(N4CCCNCC4)c(Cl)c3=O)cc2)cc1
(A) 87

* * *

Assay target: Protein kinase 7 (PK7), Plasmodium falciparum 3D7 (PF3D7_0213400)
Assay notes: inhibition of Plasmodium PK7 catalytic activity – biochemical, TCAMS antimalarial set, Kinase-Glo luminescence (AID 1159587)
Run conditions: recombinant PfPK7, Kinase-Glo ATP depletion luminescence
Calls of active or inactive are those of the source. No rule for the calls is given here.
Measured attribute: outcome

Known results for molecules:
- Molecule: "COc1ccccc1CN1CCC(NC(=O)c2ccc(-c3cccc(Cl)c3)s2)CC1"
  outcome: "inactive"
- Molecule: "O=S(=O)(NC1CCN(c2ccnc3cc(Cl)ccc23)C1)c1cccc(F)c1 (stereo unspecified)"
  outcome: "inactive"
- Molecule: "CN1CCC(N(Cc2ccc(-c3cnc(NCc4ccccc4)nc3)cc2)S(=O)(=O)c2ccccc2)CC1"
  outcome: "inactive"
- Molecule: "CC(C)CNC(=O)c1ccnc(-c2ccc(CNCCCc3ccccc3)cc2)c1"
  outcome: "inactive"
- Molecule: "CCCCCOc1ccc(NC2=CC(=O)C(=O)c3ccccc32)cc1"
  outcome: "inactive"
- Molecule: "CN(C)CCOc1cc(NC(=O)Nc2ccc(-c3ccncc3)c(Cl)c2)ccc1I"
  outcome: "inactive"

(Q) Identify outcome associated with the molecule COc1cccc(C(=O)[C@H]2C[C@@H]2CN(C)CCC(O)c2ccc(Cl)c(Cl)c2)c1 (stereo partly specified)
(A) inactive

(Q) Let me know recorded outcome for CCOC(=O)c1c(CNc2ccncc2)n(C)c2cc(Br)c(OC(C)=O)cc12 , thanks.
(A) inactive

(Q) Read the entry O=C(Nc1ccc(C(=O)N(Cc2ccc3c(c2)OCO3)C2CCCC2)cc1)c1cccs1 and write its reported outcome.
(A) inactive

(Q) Quick one: give measured outcome for O=c1cc(NC[C@H]2CCC[C@@H]2NCc2cc(Br)cc(Br)c2)[nH]c2ccccc12
(A) inactive

(Q) Annotate the molecule CCN(CC)Cc1cc(Nc2c3ccc(Cl)cc3nc3cccc(OC)c23)ccc1O with its measured outcome.
(A) inactive

(Q) Provide outcome value for the following molecule: CC(C)(C)CCN1CCC(CNC(=O)c2cc(-c3cccc(Cl)c3)cs2)C1 (stereo unspecified)
(A) inactive

(Q) // fetch outcome given entry COc1cc(NCCCNC(=O)c2ccc(Cl)c(Cl)c2)nc2ccccc12
(A) inactive

(Q) Read off the recorded outcome for CCOc1ccccc1C(=O)N1CCc2cc3nccc(N4CCN5CCC[C@H]5C4)c3cc21
(A) inactive
